Test system: myeloid leukemia patient primary cells Pat.4
Assay: cell viability (% survival relative to DMSO control); higher = less cytotoxic
Conditions: 10000 nM; 72 h
property_label: cell viability (%)
Please reply with the bare figure in % and do not write the unit itself.

The measured cell viability associated with O=C(/C=C/c1ccc(O)c(O)c1)OCCc1ccccc1 [Caffeic acid phenethyl ester] reads 2.41

The measured cell viability associated with CN(CCOc1ccc(Cc2sc(O)nc2O)cc1)c1ccccn1 [Rosiglitazone] reads 95.3

The measured cell viability associated with O=C1C(SCCO)=C(SCCO)C(=O)c2ccccc21 reads 2.39

The measured cell viability associated with C=CCN(C)CCCCCCOc1ccc(C(=O)c2ccc(Br)cc2)c(F)c1.O=C(O)/C=C/C(=O)O [Ro 48-8071 fumarate] reads 56.3
